Catalogue of compounds with associated melting point

{"compound": "C/C=C1/[C@H](O)C[C@H]2[C@@H]3CC[C@H]4C[C@@H](O[Si](C)(C)C(C)(C)C)CC[C@]4(C)[C@H]3CC[C@]12C (stereo in doubt)", "melting point": "145 to 147 °C"}
{"compound": "C/C=C1\\C(=O)C[C@H]2[C@@H]3CC=C4C[C@@H](O[Si](C)(C)C(C)(C)C)CC[C@]4(C)[C@H]3CC[C@]12C", "melting point": "138 to 142 °C"}
{"compound": "C[C@H](C1CO1)[C@H]1C(=O)C[C@H]2[C@@H]3CC=C4C[C@@H](O[Si](C)(C)C(C)(C)C)CC[C@]4(C)[C@H]3CC[C@]12C (some centres unmarked)", "melting point": "103 to 104 °C"}
{"compound": "C=C[C@@H](C)[C@H]1CC[C@@]2(C)[C@@H]3CC[C@H]4C(C)(C)[C@@H](OC(C)=O)CC[C@@]45C[C@@]35CC[C@]12C", "melting point": "145 to 147 °C"}
{"compound": "CC(=O)O[C@H]1CC[C@]2(C)C3CC[C@]4(C)[C@@H]([C@H](C)CC(=O)O)CC[C@@]4(C)C3CCC2C1(C)C (some centres unmarked)", "melting point": "203 to 205 °C"}

---

{"compound": "C/C=C1/C(=O)CC2C3CC=C4C[C@@H](O)CC[C@]4(C)C3CC[C@]12C (stereo partly shown)", "melting point": "124 to 126 °C"}
{"compound": "C/C=C1/C(O)CC2C3CC=C4C[C@@H](O)CC[C@]4(C)C3CC[C@]12C (stereo partly shown)", "melting point": "151 to 154 °C"}
{"compound": "COC(=O)C(=O)C[C@@H](C)[C@H]1CC[C@@]2(C)C3CCC4C(C)(C)[C@@H](OC(C)=O)CC[C@@]45C[C@@]35CC[C@]12C (stereo in doubt)", "melting point": "120 to 122 °C"}
{"compound": "C/C=C1/CC[C@H]2[C@@H]3CC[C@H]4C[C@@H](O[Si](C)(C)C(C)(C)C)CC[C@]4(C)[C@H]3CC[C@]12C (stereo in doubt)", "melting point": "136 to 137 °C"}
{"compound": "C[C@H](C(O)CO)C1C(=O)C[C@H]2[C@@H]3CC=C4C[C@@H](O[Si](C)(C)C(C)(C)C)CC[C@]4(C)[C@H]3CC[C@]12C (stereo partly shown)", "melting point": "172 to 175 °C"}
{"compound": "C/C=C1/CC[C@H]2[C@@H]3CC=C4C[C@@H](O[Si](C)(C)C(C)(C)C)CC[C@]4(C)[C@H]3CC[C@]12C", "melting point": "128 to 130 °C"}
{"compound": "C/C=C1/C(=O)C[C@H]2[C@@H]3CC[C@H]4C[C@@H](O[Si](C)(C)C(C)(C)C)CC[C@]4(C)[C@H]3CC[C@]12C (stereo in doubt)", "melting point": "210 to 212 °C"}
{"compound": "C/C=C1/CCC2C3CC=C4C[C@@H](O)CC[C@]4(C)C3CC[C@]12C (stereo partly shown)", "melting point": "168 to 170 °C"}
{"compound": "C=C[C@@H](C)[C@H]1C2(CC3C4CC=C5C[C@@H](O[Si](C)(C)C(C)(C)C)CC[C@]5(C)C4CC[C@@]31C)OCCO2 (stereo partly shown)", "melting point": "112 to 114 °C"}
{"compound": "CC(C)(C)[Si](C)(C)O[C@H]1CC[C@@]2(C)[C@@H](CC[C@@H]3[C@@H]2CC[C@]2(C)C(=O)CC[C@@H]32)C1", "melting point": "159 to 162 °C"}
